Parameter EC50: see the listing below.
- Tested On: T1, human AXL (full length) (human, UniProt P30530 26-894)
- T1 construct: also called TH1021-AXL; TH1021-hAXL
- Test Protocol: flow cytometry, HEK293T cells with full-length human AXL
Measure Name: EC50 (µg/mL)

{"columns": ["Binder", "Unit String", "Readout Value"],
 "data": [
  ["IgG1-AXL-183 (antibody, V domains shown) VH: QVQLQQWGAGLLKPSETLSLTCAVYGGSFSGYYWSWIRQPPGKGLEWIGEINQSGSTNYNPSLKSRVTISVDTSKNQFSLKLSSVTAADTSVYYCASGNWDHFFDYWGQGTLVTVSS VL: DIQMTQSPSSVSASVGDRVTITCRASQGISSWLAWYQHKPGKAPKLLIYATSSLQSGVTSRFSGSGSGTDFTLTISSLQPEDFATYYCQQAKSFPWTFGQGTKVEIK", "µg/mL", 0.526],
  ["IgG1-AXL-183-N52Q (antibody, V domains shown, Expressed as human IgG1,κ; also called IgG1-AXL-183-N520) VH: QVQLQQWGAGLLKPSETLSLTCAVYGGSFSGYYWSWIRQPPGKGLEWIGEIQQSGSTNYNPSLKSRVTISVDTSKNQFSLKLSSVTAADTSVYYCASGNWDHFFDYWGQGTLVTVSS VL: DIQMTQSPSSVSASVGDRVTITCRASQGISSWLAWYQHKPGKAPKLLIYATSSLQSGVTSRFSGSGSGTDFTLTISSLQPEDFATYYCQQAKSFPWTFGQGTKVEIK", "µg/mL", 0.35],
  ["IgG1-AXL-726-M101L (antibody, V domains shown, Expressed as human IgG1,κ) VH: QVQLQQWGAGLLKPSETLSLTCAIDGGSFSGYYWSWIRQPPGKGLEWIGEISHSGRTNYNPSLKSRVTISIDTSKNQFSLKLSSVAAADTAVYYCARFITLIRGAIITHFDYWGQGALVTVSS VL: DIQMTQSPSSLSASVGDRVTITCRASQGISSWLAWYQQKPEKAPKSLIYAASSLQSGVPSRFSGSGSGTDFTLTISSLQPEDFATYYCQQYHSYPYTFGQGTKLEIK", "µg/mL", 0.184],
  ["IgG1-AXL-726 (antibody, V domains shown) VH: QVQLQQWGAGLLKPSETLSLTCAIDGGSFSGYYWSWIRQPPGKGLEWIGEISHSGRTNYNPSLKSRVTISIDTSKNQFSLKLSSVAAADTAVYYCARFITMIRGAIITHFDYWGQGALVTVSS VL: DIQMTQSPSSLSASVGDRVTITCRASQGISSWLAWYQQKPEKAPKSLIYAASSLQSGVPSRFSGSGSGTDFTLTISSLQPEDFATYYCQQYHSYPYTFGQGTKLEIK", "µg/mL", 0.288],
  ["IgG1-AXL-733 (antibody, V domains shown) VH: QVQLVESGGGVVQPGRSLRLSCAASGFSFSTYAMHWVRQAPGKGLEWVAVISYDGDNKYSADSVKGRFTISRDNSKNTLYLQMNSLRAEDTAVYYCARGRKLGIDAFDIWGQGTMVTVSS VL: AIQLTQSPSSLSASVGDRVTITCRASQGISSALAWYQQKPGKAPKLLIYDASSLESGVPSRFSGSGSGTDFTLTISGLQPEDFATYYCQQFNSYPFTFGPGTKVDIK", "µg/mL", 0.176],
  ["IgG1-AXL-148 (antibody, V domains shown) VH: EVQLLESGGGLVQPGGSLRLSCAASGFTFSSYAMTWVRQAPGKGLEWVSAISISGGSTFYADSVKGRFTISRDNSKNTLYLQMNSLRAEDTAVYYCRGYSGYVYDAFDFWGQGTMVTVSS VL: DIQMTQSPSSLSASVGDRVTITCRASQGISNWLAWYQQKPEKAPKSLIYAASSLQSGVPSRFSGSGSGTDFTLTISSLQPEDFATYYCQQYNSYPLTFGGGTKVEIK", "µg/mL", 0.094]
]}

// data source = patent US20180326084A1
